- experimental-protocol: in vitro
- conditions-used: chlorocebus sabaeus, Vero E6 (Vero C1008) cells, pCC50
This section presents compounds with their documented CC50 at 48 h values.

Study these solved cases before continuing.
Cc1nc2ccccn2c(=O)c1CCN1CCC(=C(c2ccc(F)cc2)c2ccc(F)cc2)CC1: 10.2 µM
CC(C)CN(C[C@@H](O)[C@H](Cc1ccccc1)NC(=O)O[C@H]1CO[C@H]2OCC[C@H]21)S(=O)(=O)c1ccc2nc(NC3CCN(C4CCCC4)CC3)sc2c1: ~12.9 µM

Then there is this compound:
*Q* Quick one: CC50 at 48 h of COC(=O)N[C@H](C(=O)N1CCC[C@H]1c1ncc(-c2ccc(-c3ccc(-c4cnc([C@@H]5CCCN5C(=O)[C@@H](NC(=O)OC)C(C)C)[nH]4)cc3)cc2)[nH]1)C(C)C ?
*A* ~19.5 µM

---

- Test system: SARS-CoV-2
- experimental-protocol: microbe, parasite or virus in culture
- Format: functional, organism-based, Chlorocebus sabaeus, Vero C1008
- conditions-used: Severe acute respiratory syndrome coronavirus 2, Vero C1008, 48 h; read-out: pIC50 (converted)
property-name: IC50

Study these solved cases before continuing.
CCCSc1ccccc1N1CCN(CCCCn2c(=O)[nH]c3ccccc3c2=O)CC1 [TIOPERIDONE]: > 100 µM
Cc1c(-c2ccccc2)oc2c(C(=O)OC(C)(C)CN3CCCCC3)cccc2c1=O [TERFLAVOXATE]: > 100 µM

Then there is this molecule:
*Q* Quick one: IC50 of Cc1cc2cc(Oc3ccnc(Nc4cccc(CS(=O)(=O)NCCN(C)C)c4)n3)ccc2[nH]1 [SURUFATINIB] ?
*A* > 50.1 µM

---

- Tested on: SARS-CoV-2
- experimental-protocol: microbe, parasite or virus in culture
- conditions-used: Severe acute respiratory syndrome coronavirus 2, Vero C1008, 48 h
This section presents compounds with their documented IC50 values.

*Q* Request body: readout IC50, system SARS-CoV-2, query NCCc1c[nH]cn1 . Return the value.
*A* > 20 µM

*Q* Request body: readout IC50, system SARS-CoV-2, query CC(CN(C)C)CN1c2ccccc2CCc2ccccc21 (configuration not stated) . Return the value.
*A* > 20 µM

*Q* Request body: readout IC50, system SARS-CoV-2, query CCCNC(C)(C)COC(=O)c1ccccc1 . Return the value.
*A* > 20 µM

*Q* Request body: readout IC50, system SARS-CoV-2, query O=P(O)(NCCCl)NCCCl [PALIFOSFAMIDE] . Return the value.
*A* > 20 µM

*Q* Request body: readout IC50, system SARS-CoV-2, query COC(=O)C1=C(C)NC(C)=C(C(=O)OC(C)C)C1c1cccc2nonc12 (configuration not stated) . Return the value.
*A* > 20 µM

*Q* Request body: readout IC50, system SARS-CoV-2, query CCN(CC)CCCC(C)Nc1ccnc2cc(Cl)ccc12 (configuration not stated) . Return the value.
*A* ~5.86 µM

---

- System: SARS-CoV-2
- experimental-protocol: microbe, parasite or virus in culture
- Type: functional, organism-based, Chlorocebus sabaeus, Vero C1008
- conditions-used: Severe acute respiratory syndrome coronavirus 2, Vero C1008, 48 h; read-out: IC50
pIC50: −log10 of the molar value.
property-name: pIC50

CN(C)C(=O)c1cc2cnc(Nc3ccc(N4CCNCC4)cn3)nc2n1C1CCCC1: < 4.00

*Q* Quick one: pIC50 of CC(CN1c2ccccc2Sc2ccccc21)N(C)C (stereo not given) ?
*A* < 4.00

*Q* Quick one: pIC50 of Cc1cccc(C)c1NC(=O)CN1CCN(CCCC(c2ccc(F)cc2)c2ccc(F)cc2)CC1 ?
*A* < 4.00

*Q* Quick one: pIC50 of CN(C)CCCn1cc(-c2ccccc2)c(-c2ccccc2)n1 ?
*A* < 4.00

*Q* Quick one: pIC50 of CO/N=C(\C(=O)N[C@@H]1C(=O)N2C(C(=O)OC(C)OC(C)=O)=C(COC(N)=O)CS[C@H]12)c1ccco1 (stereo not given in full) ?
*A* < 4.70

*Q* Quick one: pIC50 of Clc1cnn(CCCCN2CCN(c3ncccn3)CC2)c1 ?
*A* < 4.00

*Q* Quick one: pIC50 of CNC[C@H]1C[C@@H]2c3ccccc3Cc3ccc(F)cc3[C@H]2O1 ?
*A* < 4.00

*Q* Quick one: pIC50 of Oc1cc2c(cc1O)[C@H]1c3ccccc3CN[C@@H]1CC2 [DIHYDREXIDINE] ?
*A* < 4.00

*Q* Quick one: pIC50 of CN1CCC(=C2c3ccccc3Sc3ccccc32)CC1 ?
*A* < 4.00

*Q* Quick one: pIC50 of O=C(O)CCc1nc(-c2ccccc2)c(-c2ccccc2)o1 ?
*A* < 4.30

*Q* Quick one: pIC50 of CN1CC(=O)N=C1NC(=O)Nc1cccc(Cl)c1 [FENOBAM ANHYDROUS] ?
*A* < 4.60

*Q* Quick one: pIC50 of Cc1ccc(C(=O)Oc2ccc(C(O)CNC(C)(C)C)cc2OC(=O)c2ccc(C)cc2)cc1 (stereo not given) ?
*A* < 4.00

*Q* Quick one: pIC50 of CNCCCCOc1ccccc1Cc1ccccc1 ?
*A* 4.68

*Q* Quick one: pIC50 of Clc1ccc(-c2nn(Cc3ccccc3)c3c2CCNCC3)cc1 [JNJ-18038683 FREE BASE] ?
*A* < 4.60

*Q* Quick one: pIC50 of Cc1[nH]c(/C=C2/C(=O)Nc3ccccc32)c(C)c1CCC(=O)O ?
*A* < 4.30

*Q* Quick one: pIC50 of Nc1ccc2cc3ccc(N)cc3nc2c1 ?
*A* < 4.60

*Q* Quick one: pIC50 of CC(=O)c1ccc2c(c1)N(CCCN1CCN(CCO)CC1)c1ccccc1S2 ?
*A* < 4.00

*Q* Quick one: pIC50 of Cc1nc2ccc(Oc3ccccc3)cc2c2c1CCN2CCc1ccccc1 ?
*A* ~5.31

*Q* Quick one: pIC50 of Cc1nc2ccccn2c(=O)c1CCN1CCC(=C(c2ccc(F)cc2)c2ccc(F)cc2)CC1 ?
*A* < 4.00

*Q* Quick one: pIC50 of CCN(CC)CCCNc1cc(OC)cc2cccnc12 ?
*A* < 4.00

*Q* Quick one: pIC50 of CCC1CN2CCC1CC2C(O)c1ccnc2ccc(OCCC(C)C)cc12 (stereo not given) ?
*A* < 4.00

*Q* Quick one: pIC50 of O=C(NC1CN2CCC1CC2)c1cc(Cl)cc2c1OC1CCCCC21 (stereo not given) ?
*A* < 4.60

*Q* Quick one: pIC50 of c1ccc2c(c1)Sc1ccccc1N2CC1CN2CCC1CC2 (stereo not given) ?
*A* < 4.00

---

- experimental-protocol: in vitro
- conditions-used: chlorocebus sabaeus, Vero E6 (Vero C1008) cells, CC50
This section presents compounds with their documented CC50 at 48 h values.

*Q* Quick one: CC50 at 48 h of CCCCOc1cc(C(=O)NCCN(CC)CC)c2ccccc2n1 ?
*A* ~39.6 µM

*Q* Quick one: CC50 at 48 h of Cc1[nH]c(/C=C2\C(=O)Nc3ccccc32)c(C)c1CCC(=O)O [ORANTINIB] ?
*A* > 25.1 µM

*Q* Quick one: CC50 at 48 h of CCN(CCO)CCC[C@@H](C)Nc1ccnc2cc(Cl)ccc12 ?
*A* > 50.1 µM

*Q* Quick one: CC50 at 48 h of CN1[C@@H]2CC[C@H]1CC(OC(c1ccccc1)c1ccccc1)C2 (stereo partly drawn) ?
*A* ~46.8 µM

*Q* Quick one: CC50 at 48 h of Cc1nc(Nc2ccc(F)cc2)nc(N2CCc3ccccc3C2C)c1C (stereo not drawn) ?
*A* 11.5 µM

*Q* Quick one: CC50 at 48 h of c1ccc(C(O[C@H]2CCCN(CCc3ccc4c(c3)OCO4)C2)c2ccccc2)cc1 ?
*A* > 100 µM

*Q* Quick one: CC50 at 48 h of CC(=O)c1ccc2c(c1)N(CCCN1CCC(CCO)CC1)c1ccccc1S2 ?
*A* 12.2 µM

*Q* Quick one: CC50 at 48 h of OC1(c2ccc(Cl)c(C(F)(F)F)c2)CCN(CCCC(c2ccc(F)cc2)c2ccc(F)cc2)CC1 ?
*A* 3.59 µM

---

- experimental-protocol: in vitro
- conditions-used: chlorocebus sabaeus, Vero E6 (Vero C1008) cells, CC50
Define the label as Satisfied when CC50 at 48 h is strictly less than 10 µM and as Not satisfied in all remaining cases.

CC(C)(C)c1cc(C(C)(C)C)c(NC(=O)c2c[nH]c3ccccc3c2=O)cc1O: Satisfied
O=C1CCc2ccc(OCCCCN3CCN(c4cccc(Cl)c4Cl)CC3)cc2N1: Not satisfied
COc1cc2c3cc1Oc1cc(ccc1O)C[C@@H]1c4c(cc(OC)c(O)c4Oc4ccc(cc4)C[C@H]3N(C)CC2)CCN1C: Not satisfied
CCN(CC)CCOC1(c2ccccc2)CCN(CCNc2ccccc2)CC1: Not satisfied
CN1CCC(=C2c3ccccc3Oc3ccc(Cl)cc32)CC1: Not satisfied

*Q* I wonder whether CCC1CN2CCC1CC2C(O)c1ccnc2ccc(OCCC(C)C)cc12 (stereo not drawn) has CC50 at 48 h below 10 µM. Can you tell?
*A* Not satisfied

*Q* I wonder whether CCC1=C[C@@H]2CN(C1)Cc1c([nH]c3ccccc13)[C@@](C(=O)OC)(c1cc3c(cc1OC)N(C)[C@H]1[C@@](O)(C(=O)OC)[C@H](OC(C)=O)[C@]4(CC)C=CCN5CC[C@]31[C@@H]54)C2 has CC50 at 48 h below 10 µM. Can you tell?
*A* Not satisfied

*Q* I wonder whether CN1CCN(CCCN2c3ccccc3Sc3ccc(C(F)(F)F)cc32)CC1 has CC50 at 48 h below 10 µM. Can you tell?
*A* Satisfied

*Q* I wonder whether CNCCC=C1c2ccccc2C=Cc2ccccc21 has CC50 at 48 h below 10 µM. Can you tell?
*A* Not satisfied

*Q* I wonder whether Nc1nc(Nc2ccc3c(c2)CC[C@@H](N2CCCC2)CC3)nn1-c1cc2c(nn1)-c1ccccc1CCC2 has CC50 at 48 h below 10 µM. Can you tell?
*A* Satisfied

*Q* I wonder whether Cc1ccc(-c2nc3c(nc2-c2ccc(C)cc2)N(CCCCCCC(=O)O)CCC3)cc1 has CC50 at 48 h below 10 µM. Can you tell?
*A* Not satisfied
